- assay system: recombinant human OX40 fused to a His-tag (Acro Biosystems, cat. no. OX0-H5224) (human) (UniProt P43489)
- Sequence (P43489 29-214 limits assumed): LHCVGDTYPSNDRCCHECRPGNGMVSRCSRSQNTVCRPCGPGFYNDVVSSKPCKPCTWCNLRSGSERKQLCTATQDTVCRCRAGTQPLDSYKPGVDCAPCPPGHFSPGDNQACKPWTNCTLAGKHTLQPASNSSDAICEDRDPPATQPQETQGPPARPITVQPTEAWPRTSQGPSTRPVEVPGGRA
- assay name: BLI cross-block; first Ab (competitor): IgG1-CD134-INCAGN1949
property label: association response (nm)
Express your answer in nm, writing the number without its unit.

Below are worked cases with known answers.
1. IgG1-CD134-ABBV368 (antibody, INN chains, looked up, V domains shown, IgG1) VH: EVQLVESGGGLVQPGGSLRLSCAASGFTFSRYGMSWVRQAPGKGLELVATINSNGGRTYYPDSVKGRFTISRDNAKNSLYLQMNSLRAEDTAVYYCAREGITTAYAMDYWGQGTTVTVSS VL: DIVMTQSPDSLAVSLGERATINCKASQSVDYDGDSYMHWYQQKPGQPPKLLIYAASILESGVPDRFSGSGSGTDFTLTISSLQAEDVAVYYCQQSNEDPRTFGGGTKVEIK: 0.01
2. IgG1-CD134-Hu106 (antibody, from another filing, V domains shown) VH: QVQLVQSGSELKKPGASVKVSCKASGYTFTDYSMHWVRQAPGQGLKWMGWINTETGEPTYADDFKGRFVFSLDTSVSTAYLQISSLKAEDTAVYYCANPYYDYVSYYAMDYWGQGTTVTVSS VL: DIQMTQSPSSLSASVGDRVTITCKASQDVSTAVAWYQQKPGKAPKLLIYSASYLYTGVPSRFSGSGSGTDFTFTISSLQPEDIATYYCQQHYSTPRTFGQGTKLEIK: 0
3. IgG1-CD134-RG7888 (antibody, INN chains, looked up, V domains shown, IgG1) VH: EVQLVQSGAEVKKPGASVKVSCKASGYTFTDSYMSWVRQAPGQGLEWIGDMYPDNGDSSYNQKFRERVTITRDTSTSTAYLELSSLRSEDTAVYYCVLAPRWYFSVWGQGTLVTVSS VL: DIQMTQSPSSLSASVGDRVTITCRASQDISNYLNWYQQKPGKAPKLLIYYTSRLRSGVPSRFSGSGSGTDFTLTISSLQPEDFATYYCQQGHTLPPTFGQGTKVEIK: 0.02

Can you share its association response? I mean this binder: IgG1-CD134-MEDI0562 (antibody, INN chains, looked up, V domains shown, IgG1) VH: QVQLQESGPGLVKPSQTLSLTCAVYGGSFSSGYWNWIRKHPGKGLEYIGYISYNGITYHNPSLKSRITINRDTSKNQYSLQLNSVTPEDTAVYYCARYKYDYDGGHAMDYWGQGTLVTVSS VL: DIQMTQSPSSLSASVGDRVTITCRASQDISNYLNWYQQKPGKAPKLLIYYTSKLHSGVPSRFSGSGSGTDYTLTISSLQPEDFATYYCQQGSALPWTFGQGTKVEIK 0

The values you see were collected from patent US20240400703A1.
